Kindly state MFC Candida albicans, lipopeptides without TFA counter ion for each of the entries shown.
# Test system: Candida albicans (ATCC 10231)
# Assay type: cell-based
Where a SMILES comes first, the peptide text is derived from it. The star is where a group is joined. Palmitoyl = CCCCCCCCCCCCCCCC(=O)*; Myristoyl = CCCCCCCCCCCCCC(=O)*
The figure you give is taken to be in µg/mL; do not add the unit.

Inquiry: Param item = `CCCCCCCCCCCCCC(=O)N[C@@H](CCCCN)C(=O)N[C@@H](CCCCN)C(=O)N[C@@H](CCCCN)C(N)=O` ; retrieve measured MFC Candida albicans, lipopeptides without TFA counter ion.
Reply text: 256

Inquiry: Now this one: `CCCCCCCCCCCCCC(=O)N[C@@H](CCCCN)C(=O)N[C@@H](CCCCN)C(N)=O`
Reply text: 256

Inquiry: Now this one: `CCCCCCCCCCCCCCCC(=O)N[C@@H](CCCCN)C(=O)N[C@@H](CCCCN)C(=O)N[C@@H](CCCCN)C(N)=O`
Reply text: 128

Inquiry: Now this one: `CCCCCCCCCCCCCCCC(=O)N[C@@H](CCCCN)C(N)=O`
Reply text: 512

Inquiry: Now this one: CCCCCCCCCCCCCCCC(=O)N[C@@H](CCCCN)C(=O)NCC(N)=O [C16-KG-NH2] (Palmitoyl-Lys-Gly-NH2)
Reply text: 128

Inquiry: Now this one: CCCCCCCCCCCCCCCC(=O)N[C@@H](CCCCN)C(=O)N[C@@H](CCCCN)C(=O)N[C@@H](CCCCN)C(=O)N[C@@H](CCCCN)C(N)=O [C16-KKKK-NH2] (Palmitoyl-KKKK-NH2)
Reply text: 128

Inquiry: Now this one: `CCCCCCCCCCCCCCCC(=O)N[C@@H](CCCCN)C(=O)N[C@@H](CCCCN)C(N)=O`
Reply text: 256

Inquiry: Now this one: CCCCCCCCCCCCCCCC(=O)N[C@@H](CCCCN)C(=O)NCC(=O)N[C@@H](CCCCN)C(=O)NCC(N)=O [C16-KGKG-NH2] (Palmitoyl-KGKG-NH2)
Reply text: 128

Inquiry: Now this one: `CCCCCCCCCCCCCC(=O)N[C@@H](CCCCN)C(N)=O`
Reply text: 512

Inquiry: Now this one: CCCCCCCCCCCCCC(=O)N[C@@H](CCCCN)C(=O)NCC(N)=O [C14-KG-NH2] (Myristoyl-Lys-Gly-NH2)
Reply text: 256

Inquiry: Now this one: CCCCCCCCCCCCCC(=O)N[C@@H](CCCCN)C(=O)NCC(=O)N[C@@H](CCCCN)C(N)=O [C14-KGK-NH2] (Myristoyl-Lys-Gly-Lys-NH2)
Reply text: 128

Inquiry: Now this one: CCCCCCCCCCCCCC(=O)N[C@@H](CCCCN)C(=O)NCC(=O)N[C@@H](CCCCN)C(=O)NCC(N)=O [C14-KGKG-NH2] (Myristoyl-KGKG-NH2)
Reply text: 256

Inquiry: Now this one: CCCCCCCCCCCCCC(=O)N[C@@H](CCCCN)C(=O)N[C@@H](CCCCN)C(=O)N[C@@H](CCCCN)C(=O)N[C@@H](CCCCN)C(N)=O [C14-KKKK-NH2] (Myristoyl-KKKK-NH2)
Reply text: 256

Inquiry: Now this one: CCCCCCCCCCCCCCCC(=O)N[C@@H](CCCCN)C(=O)NCC(=O)N[C@@H](CCCCN)C(N)=O [C16-KGK-NH2] (Palmitoyl-Lys-Gly-Lys-NH2)
Reply text: 128

---

# Tested on: Staphylococcus epidermidis (PCM 2118)
# Format: cell-based
# TEST_CONTEXT: PCM 2118, 24 h
Where a SMILES comes first, the peptide text is derived from it. The star is where a group is joined. Myristoyl = CCCCCCCCCCCCCC(=O)*; Decanoyl = CCCCCCCCCC(=O)*
// assign criterion met if MBC Staphylococcus epidermidis falls strictly below 20 µg/mL, else criterion not met (ties count as criterion not met)

Inquiry: Input `CCCCCCCCCCCCCC(=O)N[C@@H](CCCCN)C(=O)N[C@@H](CCCCN)C(N)=O` ; condition: MBC Staphylococcus epidermidis strictly below 20 µg/mL. Does it hold?
Reply text: criterion met

Inquiry: Now this one: `CCCCCCCCCCCCCCCC(=O)N[C@@H](CCCCN)C(N)=O`
Reply text: criterion met

Inquiry: Now this one: CCCCCCCCCC(=O)N[C@@H](CCCCN)C(=O)N[C@@H](CCCCN)C(=O)N[C@@H](CCCCN)C(=O)N[C@@H](CCCCN)C(N)=O [C10-KKKK-NH2] (Decanoyl-KKKK-NH2)
Reply text: criterion not met

Inquiry: Now this one: `CCCCCCCCCC(=O)N[C@@H](CCCCN)C(=O)N[C@@H](CCCCN)C(=O)N[C@@H](CCCCN)C(N)=O`
Reply text: criterion not met

Inquiry: Now this one: CCCCCCCCCCCCCC(=O)N[C@@H](CCCCN)C(=O)NCC(N)=O [C14-KG-NH2] (Myristoyl-Lys-Gly-NH2)
Reply text: criterion met

Inquiry: Now this one: `CCCCCCCCCCCCCC(=O)N[C@@H](CCCCN)C(N)=O`
Reply text: criterion met

Inquiry: Now this one: CCCCCCCCCCCCCC(=O)N[C@@H](CCCCN)C(=O)NCC(=O)N[C@@H](CCCCN)C(N)=O [C14-KGK-NH2] (Myristoyl-Lys-Gly-Lys-NH2)
Reply text: criterion met

Inquiry: Now this one: CCCCCCCCCC(=O)N[C@@H](CCCCN)C(=O)NCC(=O)N[C@@H](CCCCN)C(N)=O [C10-KGK-NH2] (Decanoyl-Lys-Gly-Lys-NH2)
Reply text: criterion not met

Inquiry: Now this one: `CCCCCCCCCCCC(=O)N[C@@H](CCCCN)C(=O)N[C@@H](CCCCN)C(=O)N[C@@H](CCCCN)C(N)=O`
Reply text: criterion not met

Inquiry: Now this one: CCCCCCCCCCCCCC(=O)N[C@@H](CCCCN)C(=O)NCC(=O)N[C@@H](CCCCN)C(=O)NCC(N)=O [C14-KGKG-NH2] (Myristoyl-KGKG-NH2)
Reply text: criterion not met

Inquiry: Now this one: `CCCCCCCCCCCC(=O)N[C@@H](CCCCN)C(N)=O`
Reply text: criterion not met

Inquiry: Now this one: CCCCCCCCCC(=O)N[C@@H](CCCCN)C(=O)NCC(N)=O [C10-KG-NH2] (Decanoyl-Lys-Gly-NH2)
Reply text: criterion not met

Inquiry: Now this one: CCCCCCCCCCCCCC(=O)N[C@@H](CCCCN)C(=O)N[C@@H](CCCCN)C(=O)N[C@@H](CCCCN)C(=O)N[C@@H](CCCCN)C(N)=O [C14-KKKK-NH2] (Myristoyl-KKKK-NH2)
Reply text: criterion met

Inquiry: Now this one: `CCCCCCCCCCCCCCCC(=O)N[C@@H](CCCCN)C(=O)N[C@@H](CCCCN)C(=O)N[C@@H](CCCCN)C(N)=O`
Reply text: criterion met

---

# Tested on: Candida albicans (ATCC 10231)
# Type: cell-based
# TEST_CONTEXT: ATCC 10231, 48 h
Where a SMILES comes first, the peptide text is derived from it. The star is where a group is joined. Myristoyl = CCCCCCCCCCCCCC(=O)*; Lauroyl = CCCCCCCCCCCC(=O)*
PROPERTY_MEASURED: MIC Candida albicans

Inquiry: Param item = `CCCCCCCCCCCCCC(=O)N[C@@H](CCCCN)C(N)=O` ; retrieve measured MIC Candida albicans.
Reply text: 512 µg/mL

Inquiry: Now this one: CCCCCCCCCCCC(=O)N[C@@H](CCCCN)C(=O)NCC(N)=O [C12-KG-NH2] (Lauroyl-Lys-Gly-NH2)
Reply text: 512 µg/mL

Inquiry: Now this one: CCCCCCCCCCCCCC(=O)N[C@@H](CCCCN)C(=O)N[C@@H](CCCCN)C(=O)N[C@@H](CCCCN)C(=O)N[C@@H](CCCCN)C(N)=O [C14-KKKK-NH2] (Myristoyl-KKKK-NH2)
Reply text: 128 µg/mL

Inquiry: Now this one: `CCCCCCCCCCCC(=O)N[C@@H](CCCCN)C(=O)N[C@@H](CCCCN)C(=O)N[C@@H](CCCCN)C(N)=O`
Reply text: 1000 µg/mL

Inquiry: Now this one: CCCCCCCCCCCC(=O)N[C@@H](CCCCN)C(=O)NCC(=O)N[C@@H](CCCCN)C(=O)NCC(N)=O [C12-KGKG-NH2] (Lauroyl-KGKG-NH2)
Reply text: 1000 µg/mL

Inquiry: Now this one: `CCCCCCCCCCCC(=O)N[C@@H](CCCCN)C(=O)N[C@@H](CCCCN)C(N)=O`
Reply text: 1000 µg/mL

---

# Test system: Candida tropicalis (PCM 2681)
# Assay type: cell-based
# TEST_CONTEXT: PCM 2681, 48 h
Where a SMILES comes first, the peptide text is derived from it. The star is where a group is joined. Palmitoyl = CCCCCCCCCCCCCCCC(=O)*; Myristoyl = CCCCCCCCCCCCCC(=O)*; Lauroyl = CCCCCCCCCCCC(=O)*; Decanoyl = CCCCCCCCCC(=O)*
PROPERTY_MEASURED: MFC Candida tropicalis (µg/mL)
The figure you give is taken to be in µg/mL; do not add the unit.

Inquiry: Param item = CCCCCCCCCCCCCCCC(=O)N[C@@H](CCCCN)C(=O)N[C@@H](CCCCN)C(=O)N[C@@H](CCCCN)C(=O)N[C@@H](CCCCN)C(N)=O [C16-KKKK-NH2] (Palmitoyl-KKKK-NH2) ; retrieve measured MFC Candida tropicalis.
Reply text: 128

Inquiry: Now this one: CCCCCCCCCC(=O)N[C@@H](CCCCN)C(N)=O [C10-K-NH2]
Reply text: 2000

Inquiry: Now this one: CCCCCCCCCCCCCCCC(=O)N[C@@H](CCCCN)C(=O)NCC(=O)N[C@@H](CCCCN)C(=O)NCC(N)=O [C16-KGKG-NH2] (Palmitoyl-KGKG-NH2)
Reply text: 256

Inquiry: Now this one: CCCCCCCCCCCC(=O)N[C@@H](CCCCN)C(N)=O [C12-K-NH2]
Reply text: 512

Inquiry: Now this one: CCCCCCCCCC(=O)N[C@@H](CCCCN)C(=O)N[C@@H](CCCCN)C(=O)N[C@@H](CCCCN)C(=O)N[C@@H](CCCCN)C(N)=O [C10-KKKK-NH2] (Decanoyl-KKKK-NH2)
Reply text: 2000

Inquiry: Now this one: CCCCCCCCCCCC(=O)N[C@@H](CCCCN)C(=O)N[C@@H](CCCCN)C(N)=O [C12-KK-NH2]
Reply text: 2000

Inquiry: Now this one: CCCCCCCCCCCCCC(=O)N[C@@H](CCCCN)C(=O)NCC(N)=O [C14-KG-NH2] (Myristoyl-Lys-Gly-NH2)
Reply text: 256

Inquiry: Now this one: CCCCCCCCCCCCCCCC(=O)N[C@@H](CCCCN)C(=O)N[C@@H](CCCCN)C(=O)N[C@@H](CCCCN)C(N)=O [C16-KKK-NH2]
Reply text: 128

Inquiry: Now this one: CCCCCCCCCC(=O)N[C@@H](CCCCN)C(=O)NCC(N)=O [C10-KG-NH2] (Decanoyl-Lys-Gly-NH2)
Reply text: 2000

Inquiry: Now this one: CCCCCCCCCCCCCC(=O)N[C@@H](CCCCN)C(=O)NCC(=O)N[C@@H](CCCCN)C(N)=O [C14-KGK-NH2] (Myristoyl-Lys-Gly-Lys-NH2)
Reply text: 256

Inquiry: Now this one: CCCCCCCCCCCCCC(=O)N[C@@H](CCCCN)C(=O)NCC(=O)N[C@@H](CCCCN)C(=O)NCC(N)=O [C14-KGKG-NH2] (Myristoyl-KGKG-NH2)
Reply text: 512

Inquiry: Now this one: CCCCCCCCCCCC(=O)N[C@@H](CCCCN)C(=O)NCC(=O)N[C@@H](CCCCN)C(N)=O [C12-KGK-NH2] (Lauroyl-Lys-Gly-Lys-NH2)
Reply text: 2000

Inquiry: Now this one: CCCCCCCCCC(=O)N[C@@H](CCCCN)C(=O)N[C@@H](CCCCN)C(N)=O [C10-KK-NH2]
Reply text: 1000
